Consider the following binders and their measured Ka readings.
Molecular target: T1, recombinant human IL-23R/Fc chimera (R&D Systems) (human, UniProt Q5VWK5 24-355)
T1 construct: Bought; also called rhIL23RFc
T1 sequence (looked up): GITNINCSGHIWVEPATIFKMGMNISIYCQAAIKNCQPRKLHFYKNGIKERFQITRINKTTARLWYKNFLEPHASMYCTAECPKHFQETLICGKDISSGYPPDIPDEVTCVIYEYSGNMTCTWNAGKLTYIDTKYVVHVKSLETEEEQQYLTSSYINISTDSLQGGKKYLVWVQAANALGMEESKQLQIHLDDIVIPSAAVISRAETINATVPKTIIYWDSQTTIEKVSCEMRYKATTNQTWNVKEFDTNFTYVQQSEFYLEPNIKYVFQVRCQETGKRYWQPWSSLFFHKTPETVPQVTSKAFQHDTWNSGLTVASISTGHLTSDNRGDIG
Assay: SPR
Method: A Biacore 3000 biosensor (GE Healthcare) was used to evaluate the interaction of human IL-23R and receptor binders. Immobilization of an anti-human IgG Fc antibody (GE Healthcare) to the CM5 chip (GE Healthcare) was performed using standard amine coupling chemistry, and this modified surface was used to capture a recombinant human IL-23R/Fc fusion protein (R&D Systems). A low-density receptor surface, less than 200 RU, was used for all of the analyses. […]
# value in M⁻¹; strip the unit string

[
  {
    "binder": "101-51-1A6 ATRIMER complex (designed binder, Forms a homotrimer through the tetranectin coiled coil; one protomer is given., not shown: C-terminal tag: His/Myc (pANA4) or HA-StrepII (pANA10)) EPPTQKPKKIVNAKKDVVNTKMFEELKSRLDTLAQEVALLKEQQALQTVCLKGTKVHMKCFLAFTQTKTFHEASEDCISRGGTLSTPQTGSENDALYEYLRQSVGNEAEIWLGLNGSALTNTWVDMTGARIAYKNWENNLSAQPRGGFGYFGENCAVLSGAANGKWFDKRCRDQLPYICQFGIV",
    "Ka [M⁻¹]": "1.34e+09"
  }
]

Now for another entry.
Incoming: Tell me the measured Ka of 105-20-2G12 ATRIMER complex (designed binder) EPPTQKPKKIVNAKKDVVNTKMFEELKSRLDTLAQEVALLKEQQALQTVCLKGTKVHMKCFLAFTQTKTFHEASEDCISRGGTLSTPQTGSENDALYEYLRQSVGNEAEIWLGLNGSPRTNTWVDMTGARIAYKNWETEITAQPDGGFGYFGENCAVLSGAANGKWFDKRCRDQLPYICQFGIV , please.
Outgoing: 1.52e+09
